system: HOP-92 NSCLC; assay: NCI-60 one-dose screen, 48 h (100 = growth as untreated, 0 = no growth, -100 = all killed); conditions: 10 µM unless noted
About 83,000 compounds went through this panel and 20% of them were active in at least one assay; those are over-represented in the sample as a whole.
Answer each item with its documented growth.
Provide the reading as a plain figure in %.

Q. Fill in the blank: the reported growth of Cc1nc2sc(C(=O)Nc3cccc4c3OCCO4)c(N)c2cc1C(C)O (stereo not given) is ____.
A. 49.6

Q. Okay, and COc1ccc2nc3cc(Cl)ccc3c(NCCNCC(O)CO)c2c1 (stereo not given) ?
A. 13.1

Q. Okay, and COc1ccc(C(=O)/C=C/c2c[n+](=O)c3ccc(F)cc3n2[O-])cc1 ?
A. 85.7

Q. Okay, and COC(=O)C12C3C(=O)N(c4ccc(OC)cc4)C(=O)C3C(c3cn(-c4ccccc4)nc3C)N1[C@H](c1cn(-c3ccccc3)nc1C)[C@@H]1C(=O)N(c3ccc(OC)cc3)C(=O)[C@@H]12 (stereo not given in full) ?
A. 97.4

Q. Okay, and CCc1ccccc1NC(=O)c1sc2nc3c(cc2c1N)C(=O)CCC3 ?
A. 84.8

Q. Okay, and CC1CN(Cc2ccco2)C(=S)N(c2ccccc2)C1=O (stereo not given) ?
A. 92.7

Q. Okay, and COc1cc(C2CC(=O)Nc3c2c(C)nn3-c2nc3ccccc3[nH]2)cc(OC)c1OC (stereo not given) ?
A. 89.8

Q. Okay, and CC1=C(NCCN2CCCC2)C(=O)c2c(OCc3cccc(Cl)c3)cccc2C1=O ?
A. 60.6

Q. Okay, and O=C(CO[N+](=O)[O-])Nc1ccc(C(=O)/C=C/c2ccc3c(c2)OCO3)cc1 ?
A. 77.3

Q. Okay, and CCC(=O)OCc1cccc(OC)c1 ?
A. 76.4

Hello, the source for this data is PubChem BioAssay (NCI), in case you need it.
